Molecular target: UniProt:P29275
Sequence (P29275 whole entry): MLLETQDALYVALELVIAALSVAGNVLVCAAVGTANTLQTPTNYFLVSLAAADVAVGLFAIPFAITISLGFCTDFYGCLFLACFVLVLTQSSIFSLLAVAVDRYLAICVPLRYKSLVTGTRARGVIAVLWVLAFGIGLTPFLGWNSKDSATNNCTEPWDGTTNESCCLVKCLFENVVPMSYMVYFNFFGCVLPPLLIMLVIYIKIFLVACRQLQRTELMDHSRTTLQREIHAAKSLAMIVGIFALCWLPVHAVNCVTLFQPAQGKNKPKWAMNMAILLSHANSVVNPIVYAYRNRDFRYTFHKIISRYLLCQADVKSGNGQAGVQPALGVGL
Experiment: Binding affinity to human Adenosine A2B receptor expressed in yeast cells coexpressed with GPA1/Galphas
Format: cell-based
Activity calls are given as the source filed them. The rule behind the calls is not given here.
experimental_readout: pKA

>>> result("CN1[C@@H]2CCC[C@H]1C[C@@H](Nc1ncnc3c1ncn3[C@@H]1O[C@H](CSc3ccccc3F)[C@@H](O)[C@H]1O)C2")
"inactive"
>>> result("CN1[C@@H]2CCC[C@H]1C[C@@H](Nc1ncnc3c1ncn3[C@@H]1O[C@H](CO)[C@@H](O)[C@H]1O)C2")
"inactive"
>>> result("OC[C@H]1O[C@@H](n2cnc3c(NC4CCCC4)nc(Cl)nc32)[C@H](O)[C@@H]1O")
4.4
>>> result("CCNC(=O)[C@H]1O[C@@H](n2cnc3c(N4[C@@H]5CCC[C@H]4C[C@H](N(C)C)C5)ncnc32)[C@H](O)[C@@H]1O")
"inactive"

---

Biological target: Adenosine receptor A1 (Homo sapiens)
Sequence (P30542 whole entry): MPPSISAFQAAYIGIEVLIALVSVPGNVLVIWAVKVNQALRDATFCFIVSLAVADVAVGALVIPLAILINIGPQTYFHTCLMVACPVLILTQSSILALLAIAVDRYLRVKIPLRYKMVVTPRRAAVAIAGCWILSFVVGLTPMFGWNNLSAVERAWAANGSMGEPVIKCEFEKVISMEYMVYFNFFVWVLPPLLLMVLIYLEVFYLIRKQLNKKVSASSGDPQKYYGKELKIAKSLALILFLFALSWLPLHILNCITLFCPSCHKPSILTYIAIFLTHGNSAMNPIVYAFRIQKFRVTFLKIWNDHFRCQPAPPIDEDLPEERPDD
Assay: Agonist activity at human Adenosine A1 receptor transfected in CHO-K1 cells assessed as inhibition of forskolin-stimulated cAMP production after 30 mins by multimode microplate reader analysis
experimental_readout: IC50 (µM)
Numbers only here, please. The scale is µM.

Form entry - test system: Adenosine receptor A1 (Homo sapiens); read-out: IC50; compound: `CCNC(=O)[C@H]1O[C@@H](n2cnc3c(NC45CC6CC(CC(O)(C6)C4)C5)ncnc32)[C@H](O)[C@@H]1O`
0.0372

Form entry - test system: Adenosine receptor A1 (Homo sapiens); read-out: IC50; compound: `OC[C@H]1O[C@@H](n2cnc3c(NC45CC6CC(CC(C6)C4)C5)ncnc32)[C@H](O)[C@@H]1O`
0.0191

Form entry - test system: Adenosine receptor A1 (Homo sapiens); read-out: IC50; compound: `CCNC(=O)[C@H]1O[C@@H](n2cnc3c(NC45CC6CC(CC(C6)C4)C5)ncnc32)[C@H](O)[C@@H]1O`
0.00288

---

Target: Adenosine receptor A1 (Homo sapiens)
Assay: Displacement of [3H]CPX from human Adenosine A1 receptor expressed in DDT1MF-2 cells
Assay type: cell-based
experimental_readout: pKi
# pKi: negative log10 of molar concentration; output just the value

Recorded pKi of `O[C@@H]1[C@H](O)[C@@H](CSc2ccccc2F)O[C@H]1n1cnc2c(N[C@@H]3CCC[C@H]3O)ncnc21` , please.
6.95

---

Molecular target: Adenosine receptor A2a (Homo sapiens, UniProt P29274)
Sequence (P29274 whole entry): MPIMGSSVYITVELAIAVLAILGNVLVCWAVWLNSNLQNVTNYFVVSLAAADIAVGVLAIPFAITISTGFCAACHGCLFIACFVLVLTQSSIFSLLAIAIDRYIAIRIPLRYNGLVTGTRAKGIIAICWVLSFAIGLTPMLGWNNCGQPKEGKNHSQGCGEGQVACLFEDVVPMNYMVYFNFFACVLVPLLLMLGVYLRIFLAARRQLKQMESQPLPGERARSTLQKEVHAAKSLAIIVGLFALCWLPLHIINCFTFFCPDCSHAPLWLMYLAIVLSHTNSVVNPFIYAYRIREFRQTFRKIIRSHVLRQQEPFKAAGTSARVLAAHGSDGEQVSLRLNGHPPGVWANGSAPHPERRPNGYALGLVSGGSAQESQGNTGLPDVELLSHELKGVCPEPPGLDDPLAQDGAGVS
Calls of active or inactive are those of the source.
experimental_readout: pKA

Solved cases (4 shown):
>>> result("CCNC(=O)[C@H]1O[C@@H](n2cnc3c(NC45CC6CC(CC(C6)C4)C5)ncnc32)[C@H](O)[C@@H]1O")
"inactive"
>>> result("CCNC(=O)[C@H]1O[C@@H](n2cnc3c(N4[C@@H]5CCC[C@H]4C[C@H](N(C)C)C5)ncnc32)[C@H](O)[C@@H]1O")
"inactive"
>>> result("CCNC(=O)[C@H]1O[C@@H](n2cnc3c(NC45CC6CC(CC(O)(C6)C4)C5)ncnc32)[C@H](O)[C@@H]1O")
"inactive"
>>> result("CCNC(=O)[C@H]1O[C@@H](n2cnc3c(N[C@@H]4CCC[C@H]4OCc4ccccc4)ncnc32)[C@H](O)[C@@H]1O")
3.9

Recorded pKA of `CCNC(=O)[C@H]1O[C@@H](n2cnc3c(N[C@H]4C[C@H]5CCC[C@@H](C4)N5C)ncnc32)[C@H](O)[C@@H]1O` , please.
inactive
